Cited source: the supplement of paper PMC10567573

B1: SNAP91 (parent)
chain: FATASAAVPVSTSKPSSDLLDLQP

Variants of: B1
Assay: protein stability index of a GFP-peptide fusion (GPS, HEK-293T) (PSI 1-6); higher = more stable;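 further: lentivirally expressed fusions sorted by FACS into six bins by GFP to DsRed ratio, PSI derived from sequencing read proportions per bin multiplied by bin number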
Settings: c terminus: a fixed tail appended
protein stability index: recorded values
propertyName: protein stability index

sequencevariant=P24Q recordednumber=4.06
sequencevariant=P9Q recordednumber=3.31
sequencevariant=S16E recordednumber=3.87
sequencevariant=D18P recordednumber=3.3
sequencevariant=D18M recordednumber=2.87
sequencevariant=T12S recordednumber=4.49
sequencevariant=S17A recordednumber=3.68
sequencevariant=A2D recordednumber=5
sequencevariant=K14N recordednumber=3.89
sequencevariant=L22D recordednumber=4.22
sequencevariant=P15D recordednumber=4.17
sequencevariant=S13T recordednumber=3.38
sequencevariant=D18T recordednumber=3.17
sequencevariant=S5L recordednumber=2.28
sequencevariant=F1M recordednumber=4.67
sequencevariant=L19Y recordednumber=3.56
sequencevariant=A4N recordednumber=3.81
sequencevariant=D21H recordednumber=3.27
sequencevariant=P9G recordednumber=2.3
sequencevariant=A4G recordednumber=3.63
sequencevariant=K14V recordednumber=4.05
sequencevariant=L20G recordednumber=4.12
sequencevariant=F1Q recordednumber=5.06
sequencevariant=A6W recordednumber=4.07
sequencevariant=T3H recordednumber=3.71
sequencevariant=A2R recordednumber=3.46
sequencevariant=T3D recordednumber=3.8
sequencevariant=L20R recordednumber=4.09
sequencevariant=T12W recordednumber=2.61
sequencevariant=A7S recordednumber=3.55
sequencevariant=S11V recordednumber=3.62
sequencevariant=S13C recordednumber=2.57
sequencevariant=P24D recordednumber=4.52
sequencevariant=L22E recordednumber=4.76
sequencevariant=P15V recordednumber=3.14
sequencevariant=T3P recordednumber=2.41
sequencevariant=L19D recordednumber=4.64
sequencevariant=S16T recordednumber=3.03
sequencevariant=S13Y recordednumber=3.36
sequencevariant=L20F recordednumber=3.15
sequencevariant=S17G recordednumber=3.68
sequencevariant=Q23I recordednumber=2.92
sequencevariant=L20W recordednumber=2.97
sequencevariant=S16G recordednumber=3.57
sequencevariant=K14C recordednumber=3.61
sequencevariant=D18K recordednumber=2.98
sequencevariant=A7M recordednumber=4.01
sequencevariant=S13V recordednumber=3.52
sequencevariant=L19E recordednumber=4.59
sequencevariant=A6P recordednumber=3.54
sequencevariant=D21N recordednumber=3.59
sequencevariant=K14S recordednumber=4.01
sequencevariant=Q23K recordednumber=3.42
sequencevariant=V10N recordednumber=3.94
sequencevariant=S17E recordednumber=4.13
sequencevariant=A6Y recordednumber=1.96
sequencevariant=L22H recordednumber=4.07
sequencevariant=V8I recordednumber=3.93
sequencevariant=A4I recordednumber=3.04
sequencevariant=V10L recordednumber=3.63
sequencevariant=F1I recordednumber=4.5
sequencevariant=V10F recordednumber=2.69
sequencevariant=L22R recordednumber=4.14
sequencevariant=V8N recordednumber=4.32
sequencevariant=T12L recordednumber=3.74
sequencevariant=P24F recordednumber=2.8
sequencevariant=A2N recordednumber=3.85
sequencevariant=A7V recordednumber=3.05
sequencevariant=D18R recordednumber=2.84
sequencevariant=V8A recordednumber=3.58
sequencevariant=K14D recordednumber=4.36
sequencevariant=D18Q recordednumber=3.19
sequencevariant=S13D recordednumber=3.62
sequencevariant=S16P recordednumber=3.5
sequencevariant=Q23S recordednumber=4.18
sequencevariant=D21S recordednumber=3.25
sequencevariant=F1Y recordednumber=3.8
